# TESTED TARGET: ACE (Oryctolagus cuniculus)
# Sequence (P12822 34-1310): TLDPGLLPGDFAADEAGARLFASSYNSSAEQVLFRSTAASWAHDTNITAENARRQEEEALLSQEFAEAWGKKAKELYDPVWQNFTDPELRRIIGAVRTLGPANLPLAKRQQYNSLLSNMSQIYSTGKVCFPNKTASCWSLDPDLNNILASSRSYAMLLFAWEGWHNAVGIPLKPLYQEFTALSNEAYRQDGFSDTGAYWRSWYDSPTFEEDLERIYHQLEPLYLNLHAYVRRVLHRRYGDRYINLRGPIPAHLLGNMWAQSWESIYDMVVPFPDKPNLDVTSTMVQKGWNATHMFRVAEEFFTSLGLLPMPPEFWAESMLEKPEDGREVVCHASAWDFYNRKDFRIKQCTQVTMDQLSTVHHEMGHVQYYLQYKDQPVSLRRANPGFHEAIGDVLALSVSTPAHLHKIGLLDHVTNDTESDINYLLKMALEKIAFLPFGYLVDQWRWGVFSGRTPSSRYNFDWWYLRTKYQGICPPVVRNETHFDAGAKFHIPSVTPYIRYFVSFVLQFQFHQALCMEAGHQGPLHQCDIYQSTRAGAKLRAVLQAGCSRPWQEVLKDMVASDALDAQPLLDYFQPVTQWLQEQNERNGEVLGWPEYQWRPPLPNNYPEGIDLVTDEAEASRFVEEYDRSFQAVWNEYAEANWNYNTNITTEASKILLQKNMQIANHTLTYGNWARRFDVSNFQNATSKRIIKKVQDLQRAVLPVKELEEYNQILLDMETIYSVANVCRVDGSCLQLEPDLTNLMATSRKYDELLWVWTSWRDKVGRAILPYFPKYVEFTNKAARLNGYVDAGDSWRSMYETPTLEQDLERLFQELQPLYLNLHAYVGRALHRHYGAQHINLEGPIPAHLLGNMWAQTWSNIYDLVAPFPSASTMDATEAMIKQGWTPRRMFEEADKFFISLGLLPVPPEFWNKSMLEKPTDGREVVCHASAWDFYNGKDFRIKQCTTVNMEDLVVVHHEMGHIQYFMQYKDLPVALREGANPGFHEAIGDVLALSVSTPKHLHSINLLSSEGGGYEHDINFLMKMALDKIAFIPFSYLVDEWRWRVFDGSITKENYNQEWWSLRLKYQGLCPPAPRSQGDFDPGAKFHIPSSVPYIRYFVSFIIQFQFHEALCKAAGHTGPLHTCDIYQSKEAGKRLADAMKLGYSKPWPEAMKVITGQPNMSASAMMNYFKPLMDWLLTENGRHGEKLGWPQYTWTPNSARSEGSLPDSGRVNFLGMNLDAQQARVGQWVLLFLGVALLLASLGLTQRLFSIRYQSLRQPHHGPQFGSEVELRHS

| MOLECULE | UNIT OF MEASURE | IC50 |
| --- | --- | --- |
| O=C(O)CN1C[C@@H](c2ccccc2)CC[C@H](N[C@@H](CCc2ccccc2)C(=O)O)C1=O (single isomer, unassigned) [Test Compound A] | nM | 1.4 |
| O=C(O)CN1C[C@@H](c2ccc(F)cc2)CC[C@H](N[C@@H](CCc2ccccc2)C(=O)O)C1=O [Test Compound C] | nM | 1.7 |

src = patent US4734410A
